These measurements were taken from paper PMC9814838.

Target: Nurr1 (Homo sapiens)
Construct: Nurr1 (uniprot entry: hNURR1–P43354, residues 360–598); expressed in transfected cells; host or cells: HEK293T
Experiment: Gal4-Nurr1 hybrid reporter gene assay in HEK293T cells
Assay type: cell-based
Settings: 30 µM; primary screen; n ≥ 2; ^# not significant vs VP16 control
Nurr1 activity 30μM (mean fold activation) by entry:
# number only, unit fold dropped from output

# count of solved cases: 5
CC(=O)Oc1ccccc1C(=O)O
0.92
COc1ccc2cc(CCC(C)=O)ccc2c1
1.46
O=C(O)c1ccccc1O
1.02
CC(C(=O)O)c1ccc2c(c1)[nH]c1ccc(Cl)cc12 (stereo not drawn)
1.19
CCc1cccc2c3c([nH]c12)C(CC)(CC(=O)O)OCC3 (stereo not drawn)
0.93

Turning now to a further record.
Missing value: Nurr1 activity 30μM (mean fold activation), Nurr1 (Homo sapiens), entry CC(C(=O)O)c1cccc(C(=O)c2ccccc2)c1 (stereo not drawn) . Fill in?
0.94

* * *

Molecular target: NOR1 (Homo sapiens, UniProt Q92570)
Construct: NOR1 (isoform alpha; uniprot entry: hNOR1–Q92570-1, residues 393–626); expressed in transfected cells; host or cells: HEK293T
Sequence (Q92570 393-626): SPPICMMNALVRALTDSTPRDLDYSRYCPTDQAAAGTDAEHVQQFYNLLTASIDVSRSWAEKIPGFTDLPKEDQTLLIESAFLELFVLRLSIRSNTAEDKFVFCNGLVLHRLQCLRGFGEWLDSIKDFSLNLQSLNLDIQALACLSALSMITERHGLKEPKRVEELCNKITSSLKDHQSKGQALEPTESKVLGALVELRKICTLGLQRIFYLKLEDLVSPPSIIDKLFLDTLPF
Experiment: Gal4-NOR1 hybrid reporter gene assay in HEK293T cells
Type: cell-based
Details: 10 µM; primary screen; n ≥ 2; ^# not significant vs VP16 control
Nor1 activity 10μM (mean fold activation) by entry:
# number only, unit fold dropped from output

NC(=O)Cc1cccc(C(=O)c2ccccc2)c1N [nepafenac]
1.09
CCCCC1C(=O)N(c2ccccc2)N(c2ccccc2)C1=O [phenylbutazone]
0.94

Turning now to a further record.
Consider the compound shown here: CC(C(=O)O)c1cccc(Oc2ccccc2)c1 (centres unmarked) [fenoprofen] What is its recorded Nor1 activity 10μM (mean fold activation)?
1.01

* * *

Biological target: Nurr1 (Homo sapiens, UniProt P43354)
Construct: Nurr1 (uniprot entry: hNURR1–P43354, residues 360–598); expressed in transfected cells; host or cells: HEK293T
Sequence (P43354 360-598): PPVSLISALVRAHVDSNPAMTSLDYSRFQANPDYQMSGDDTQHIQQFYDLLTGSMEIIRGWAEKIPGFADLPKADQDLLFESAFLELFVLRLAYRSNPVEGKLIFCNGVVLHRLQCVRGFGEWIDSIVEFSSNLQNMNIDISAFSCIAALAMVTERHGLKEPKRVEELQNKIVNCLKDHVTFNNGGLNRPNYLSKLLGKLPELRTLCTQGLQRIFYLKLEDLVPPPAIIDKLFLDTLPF
Test: Gal4-Nurr1 hybrid reporter gene assay in HEK293T cells
Assay type: cell-based
Settings: 30 µM; primary screen; n ≥ 2; ^# not significant vs VP16 control
MEASURE: Nurr1 activity 30μM (mean fold activation) (fold)
# number only, unit fold dropped from output

# count of solved cases: 5
CN1C(C(=O)Nc2ccccn2)=C(O)c2sccc2S1(=O)=O
0.99
CC(C(=O)O)c1ccc2c(c1)CC(=O)c1ccccc1S2 (stereo not drawn)
0.94
Cc1ccc(Nc2c(F)cccc2Cl)c(CC(=O)O)c1
0.76
CN1C(C(=O)Nc2ccccn2)=C(O)c2ccccc2S1(=O)=O
0.98
COc1ccc2c(c1)c(CC(=O)O)c(C)n2C(=O)c1ccc(Cl)cc1
0.91

Turning now to a further record.
Consider the compound shown here: CC(C(=O)O)c1ccc(-c2ccccc2)c(F)c1 (stereo not drawn) What is its recorded Nurr1 activity 30μM (mean fold activation)?
1.05

* * *

Biological target: Nurr1 (Homo sapiens)
Construct: Nurr1 (uniprot entry: hNURR1–P43354, residues 360–598); expressed in transfected cells; host or cells: HEK293T
Assay: Gal4-Nurr1 hybrid reporter gene assay in HEK293T cells
Type: cell-based
Details: 30 µM; primary screen; n ≥ 2; ^# not significant vs VP16 control
MEASURE: Nurr1 activity 30μM (mean fold activation)

O=C(O)Cc1ccccc1Nc1c(Cl)cccc1Cl
toxic
Cc1c(Nc2ncccc2C(=O)O)cccc1C(F)(F)F
toxic
O=C(OCCOCCO)c1ccccc1Nc1cccc(C(F)(F)F)c1 [etofenamate]
toxic
